System: Spontaneously Hypertensive Rats
ASSAY DETAILS: Spontaneously Hypertensive Rat (SHR) Test, hemodynamics in anesthetized rats
Format: in vivo, Spontaneously Hypertensive Rat (Sprague Dawley)
DETAILS: 1.0 mg/kg i.v., anesthetized SHR
OBSERVATION TYPE: LVPT (time for Left Ventricular Pressure to decay from peak to 50%, % of basal)

Worked cases, answers included:
COC(=O)C1=C(C)NC(C)=C(C(=O)OCCNC(=O)COc2ccc(-c3cc(C#N)c(=O)[nH]c3C)cc2)C1c1cccc([N+](=O)[O-])c1 (racemic) : -7.4%
COC(=O)C1=C(C)NC(C)=C(C(=O)OCCNC(=O)COc2ccc(-c3cc(C#N)c(=O)[nH]c3C)cc2)C1c1cccc(Cl)c1Cl (racemic) : -22.4%
Cc1[nH]c(=O)c(C#N)cc1-c1ccncc1 : -22%
COC(=O)C1=C(C)NC(C)=C(C(=O)OC)C1c1ccccc1[N+](=O)[O-] : -7%

Prompt: Output measured LVPT (time for Left Ventricular Pressure to decay from peak to 50%, % of basal) for this item: NNc1nncc2ccccc12 [Hydralazine]
Completion: 2.3%

* * *

Test system: Spontaneously Hypertensive Rats
ASSAY DETAILS: Spontaneously Hypertensive Rat (SHR) Test, hemodynamics in anesthetized rats
Format: in vivo, Spontaneously Hypertensive Rat (Sprague Dawley)
DETAILS: 10 mg/kg i.v., anesthetized SHR
Protocol: Male Retired Breeder Spontaneously Hypertensive Rats (SHR) (Sprague Dawley, 250-350 g) are anesthetized by i.p. injection of Sodium Thiopental 50 mg/kg. A catheter is inserted into the duodenum for maintenance of anesthesia throughout the experiment. A tube is inserted through a lateral incision in the trachea. The left carotid artery is exposed and a Millar SPR-249 (2-F) pressure probe is inserted and passed into the left ventricle of the heart. […]
OBSERVATION TYPE: LVPT (time for Left Ventricular Pressure to decay from peak to 50%, % of basal) (%)
Please state the figure in %; there is no need to write the unit.

COC(=O)C1=C(C)NC(C)=C(C(=O)OCCNC(=O)COc2ccc(-c3cc(C#N)c(=O)[nH]c3C)cc2)C1c1cccc([N+](=O)[O-])c1 (racemic) [Example 10] : -25
NNc1nncc2ccccc12 [Hydralazine] : -21.9

Prompt: Output measured LVPT (time for Left Ventricular Pressure to decay from peak to 50%, % of basal) for this item: COC(=O)C1=C(C)NC(C)=C(C(=O)OCCNC(=O)COc2ccc(-c3cc(C#N)c(=O)[nH]c3C)cc2)C1c1cccc([N+](=O)[O-])c1 (single isomer, unassigned; (-)) [Example 16]
Completion: -18

Prompt: Output measured LVPT (time for Left Ventricular Pressure to decay from peak to 50%, % of basal) for this item: COC(=O)C1=C(C)NC(C)=C(C(=O)OCCNC(=O)COc2ccc(-c3cc(C#N)c(=O)[nH]c3C)cc2)C1c1cccc([N+](=O)[O-])c1 (single isomer, unassigned; (+)) [Example 15]
Completion: -4.2

Prompt: Output measured LVPT (time for Left Ventricular Pressure to decay from peak to 50%, % of basal) for this item: COC(=O)C1=C(C)NC(C)=C(C(=O)OCCNC(=O)COc2ccc(-c3cc(C#N)c(=O)[nH]c3C)cc2)C1c1cccc(Cl)c1Cl (racemic)
Completion: -31

* * *

Test system: Spontaneously Hypertensive Rats
ASSAY DETAILS: Spontaneously Hypertensive Rat (SHR) Test, hemodynamics in anesthetized rats
Type: in vivo, Spontaneously Hypertensive Rat (Sprague Dawley)
DETAILS: 10 mg/kg i.v., anesthetized SHR
Each item that follows carries a reported MBP (Mean Blood Pressure: change from basal).
Please state the figure in %; there is no need to write the unit.

Worked cases, answers included:
COC(=O)C1=C(C)NC(C)=C(C(=O)OCCNC(=O)COc2ccc(-c3cc(C#N)c(=O)[nH]c3C)cc2)C1c1cccc([N+](=O)[O-])c1 (single isomer, unassigned; (-)) [Example 16] : -34.9
COC(=O)C1=C(C)NC(C)=C(C(=O)OCCNC(=O)COc2ccc(-c3cc(C#N)c(=O)[nH]c3C)cc2)C1c1cccc([N+](=O)[O-])c1 (racemic) [Example 10] : -23
COC(=O)C1=C(C)NC(C)=C(C(=O)OCCNC(=O)COc2ccc(-c3cc(C#N)c(=O)[nH]c3C)cc2)C1c1cccc([N+](=O)[O-])c1 (single isomer, unassigned; (+)) [Example 15] : -39.8
COC(=O)C1=C(C)NC(C)=C(C(=O)OCCNC(=O)COc2ccc(-c3cc(C#N)c(=O)[nH]c3C)cc2)C1c1cccc(Cl)c1Cl (racemic) : -45.8

Let's switch to this molecule now.
Prompt: Output measured MBP (Mean Blood Pressure: change from basal) for this item: NNc1nncc2ccccc12 [Hydralazine]
Completion: -48
